tested on: CYP2C-1; experiment: IC50 of vortioxetine on CYP2C-1 (amodiaquine) in RLMs; format: in vitro ADME; details: rat, rat liver microsomes, probe amodiaquine, RLMs 0.20 mg/mL, amodiaquine at Km, 37°C, 30 min, read-out: IC50
Quantity Measured: IC50 at 30 min (µM)
Report as a plain number; the unit µM is understood.

Ask | Would you kindly share the measured IC50 at 30 min for Cc1ccc(Sc2ccccc2N2CCNCC2)c(C)c1 ?
Reply | 22.2

====

biological target: CYP2B6 (Homo sapiens); assay: IC50 of vortioxetine on CYP2B6 (bupropion) in HLMs; type: in vitro ADME; design: 0.20 mg/mL HLMs; from tissue; host or cells: human liver microsomes; settings: inhibitory effect (strength judged by IC50), HLMs
Sequence (P20813 whole entry): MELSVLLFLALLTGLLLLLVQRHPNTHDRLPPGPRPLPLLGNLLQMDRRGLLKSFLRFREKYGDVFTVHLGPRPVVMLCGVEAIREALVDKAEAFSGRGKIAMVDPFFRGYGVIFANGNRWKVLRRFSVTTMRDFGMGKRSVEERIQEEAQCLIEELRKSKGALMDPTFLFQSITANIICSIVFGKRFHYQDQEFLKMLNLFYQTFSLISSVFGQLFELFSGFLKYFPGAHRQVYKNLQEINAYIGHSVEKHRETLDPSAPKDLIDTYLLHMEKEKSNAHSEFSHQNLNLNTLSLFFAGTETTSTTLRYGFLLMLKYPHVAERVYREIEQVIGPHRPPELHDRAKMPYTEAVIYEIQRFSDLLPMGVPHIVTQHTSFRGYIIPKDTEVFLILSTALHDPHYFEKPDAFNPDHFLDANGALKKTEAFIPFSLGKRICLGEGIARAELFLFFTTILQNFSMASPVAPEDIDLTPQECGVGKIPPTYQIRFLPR
pIC50: −log10 of the molar value.
Quantity Measured: pIC50

Ask | Would you kindly share the measured pIC50 for Cc1ccc(Sc2ccccc2N2CCNCC2)c(C)c1 ?
Reply | 5.00 to 6.00

====

molecular target: UniProt P10635; experiment: Reversible inhibition kinetics (Lineweaver-Burk), CYP2D6 in HLMs; type: in vitro ADME; design: 0.20 mg/mL HLMs; from tissue; host or cells: human liver microsomes; conditions: dextromethorphan
Sequence (P10635 whole entry): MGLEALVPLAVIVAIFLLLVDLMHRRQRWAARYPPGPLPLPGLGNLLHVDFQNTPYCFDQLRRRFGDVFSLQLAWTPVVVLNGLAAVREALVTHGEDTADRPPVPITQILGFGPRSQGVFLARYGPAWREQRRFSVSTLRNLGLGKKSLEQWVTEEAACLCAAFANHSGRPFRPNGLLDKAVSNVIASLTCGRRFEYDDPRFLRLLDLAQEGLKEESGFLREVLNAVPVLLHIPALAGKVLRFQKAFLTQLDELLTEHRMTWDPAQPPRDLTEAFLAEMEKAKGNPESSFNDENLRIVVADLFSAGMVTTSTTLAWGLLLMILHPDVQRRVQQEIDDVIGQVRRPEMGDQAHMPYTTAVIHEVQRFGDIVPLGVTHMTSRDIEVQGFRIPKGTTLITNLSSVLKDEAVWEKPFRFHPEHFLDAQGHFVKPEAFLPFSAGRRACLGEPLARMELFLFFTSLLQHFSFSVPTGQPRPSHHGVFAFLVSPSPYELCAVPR
Quantity Measured: Ki
# answer = value followed by unit

Ask | Record lookup: for UniProt P10635, what Ki belongs to Cc1ccc(Sc2ccccc2N2CCNCC2)c(C)c1 ?
Reply | 9.37 µM

====

tested on: CYP2C-3; experiment: Reversible inhibition kinetics (Lineweaver-Burk), CYP2C-3 in RLMs; format: in vitro ADME, rat; settings: rat, rat liver microsomes, probe mephenytoin
Quantity Measured: Ki at 30 min (µM)
Report as a plain number; the unit µM is understood.

Ask | Would you kindly share the measured Ki at 30 min for Cc1ccc(Sc2ccccc2N2CCNCC2)c(C)c1 [vortioxetine] ?
Reply | 4.23

====

tested on: CYP2C-2; experiment: IC50-shift experiment, CYP2C-2 in RLMs; format: in vitro ADME, rat; settings: rat, rat liver microsomes, probe losartan, CYP2C-2, ratio IC50 (−) NADPH to IC50 (+) NADPH, read-out: IC50 fold shift
Quantity Measured: IC50 shift at 30 min
API doc: respond with a numeric literal and nothing else, no unit.

Ask | Would you kindly share the measured IC50 shift at 30 min for Cc1ccc(Sc2ccccc2N2CCNCC2)c(C)c1 ?
Reply | 0.24

====

tested on: CYP2B; experiment: IC50 of vortioxetine on CYP2B (bupropion) in RLMs; type: in vitro ADME; conditions: rat, rat liver microsomes, probe bupropion, RLMs 0.20 mg/mL, bupropion at Km, 37°C, 30 min, read-out: IC50
Quantity Measured: IC50 at 30 min (µM)
Report as a plain number; the unit µM is understood.

Ask | Would you kindly share the measured IC50 at 30 min for Cc1ccc(Sc2ccccc2N2CCNCC2)c(C)c1 ?
Reply | 8.89

====

tested on: CYP3A; experiment: IC50-shift experiment, CYP3A in RLMs; format: in vitro ADME; conditions: rat, rat liver microsomes, probe midazolam, ratio IC50 (−) NADPH to IC50 (+) NADPH, read-out: IC50 fold shift
Quantity Measured: IC50 shift at 30 min
API doc: respond with a numeric literal and nothing else, no unit.

Ask | Would you kindly share the measured IC50 shift at 30 min for Cc1ccc(Sc2ccccc2N2CCNCC2)c(C)c1 ?
Reply | 1.28

====

system: CYP2C-1; test: IC50 of vortioxetine on CYP2C-1 (amodiaquine) in RLMs; type: in vitro ADME; settings: rat, rat liver microsomes, probe amodiaquine, inhibitory effect (strength judged by IC50), RLMs
Quantity Measured: IC50 at 30 min

Ask | Would you kindly share the measured IC50 at 30 min for Cc1ccc(Sc2ccccc2N2CCNCC2)c(C)c1 ?
Reply | > 10 µM

====

test system: CYP3A; test: IC50 of vortioxetine on CYP3A (midazolam) in RLMs; assay type: in vitro ADME; conditions: rat, rat liver microsomes, probe midazolam, RLMs 0.20 mg/mL, midazolam at Km, 37°C, 30 min, read-out: IC50
Quantity Measured: IC50 at 30 min

Ask | Record lookup: for CYP3A, what IC50 at 30 min belongs to Cc1ccc(Sc2ccccc2N2CCNCC2)c(C)c1 ?
Reply | 16.4 µM

====

Biological target: CYP2C8 (Homo sapiens)
Sequence (P10632 1-490): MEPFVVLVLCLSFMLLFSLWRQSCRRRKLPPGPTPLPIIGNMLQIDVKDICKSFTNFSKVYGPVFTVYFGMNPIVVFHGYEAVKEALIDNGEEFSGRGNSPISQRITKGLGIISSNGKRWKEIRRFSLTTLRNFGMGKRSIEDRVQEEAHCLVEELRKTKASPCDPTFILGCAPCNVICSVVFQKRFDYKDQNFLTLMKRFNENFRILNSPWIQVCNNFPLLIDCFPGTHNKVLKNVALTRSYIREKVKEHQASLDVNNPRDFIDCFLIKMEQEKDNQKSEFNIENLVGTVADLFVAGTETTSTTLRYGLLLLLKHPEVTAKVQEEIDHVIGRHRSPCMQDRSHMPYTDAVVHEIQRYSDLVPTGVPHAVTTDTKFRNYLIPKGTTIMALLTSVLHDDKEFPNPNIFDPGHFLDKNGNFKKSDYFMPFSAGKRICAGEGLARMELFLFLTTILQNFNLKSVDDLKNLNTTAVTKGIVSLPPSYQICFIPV
Test: IC50-shift experiment, CYP2C8 in HLMs
Assay type: in vitro ADME
Set-up: 0.20 mg/mL HLMs or 0.20 mg/mL RLMs; from tissue; host or cells: human liver microsomes
Settings: human, human liver microsomes, probe amodiaquine (3 μM), ratio IC50 (−) NADPH to IC50 (+) NADPH, read-out: IC50 fold shift
Protocol: The components of the incubation system were as follows: 0.20 mg/mL HLMs or 0.20 mg/mL RLMs, 0.1 M Tris-HCl, vortioxetine, and the probe substrates of each enzyme. […] IC50-shift was used to investigate whether the drug produced time-dependent inhibition (TDI) of the enzyme. […] During the experiment, the individual substrates midazolam (4 μM), bupropion (40 μM), amodiaquine (3 μM), losartan (8 μM), mephenytoin (90 μM), and dextromethorphan (10 μM) were determined with vortioxetine IC50-shift in HLMs. […]
Quantity Measured: IC50 shift at 30 min
API doc: respond with a numeric literal and nothing else, no unit.

Ask | Would you kindly share the measured IC50 shift at 30 min for Cc1ccc(Sc2ccccc2N2CCNCC2)c(C)c1 ?
Reply | 0.97
